test target: KRas G12S (Homo sapiens, UniProt P01116, G12S)
Construct: Biotinylated KRas (corresponding to amino acids 1-169, produced at Accelegan Inc.); biotin (biotinylated); purchased Accelegan Inc
Sequence (P01116 1-169 isoform P01116-2 G12S): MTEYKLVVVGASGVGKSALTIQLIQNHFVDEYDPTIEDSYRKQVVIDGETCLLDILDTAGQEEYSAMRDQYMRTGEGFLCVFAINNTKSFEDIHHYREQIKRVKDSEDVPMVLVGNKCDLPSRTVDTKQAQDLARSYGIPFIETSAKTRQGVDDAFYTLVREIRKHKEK
assay notes: KRas binding assay, TR-FRET displacement of Cy5 labelled tracer
run parameters: 60-minute incubation at room temperature, 1% DMSO, pH 7.5
Hi! Just check whether IC50 is below 10 nM. Below gives label 1, equal or above gives label 0.

{"compound": "CCc1c(F)ccc2cc(O)cc(-c3ncc4c(N5C[C@@H]6[C@H](C5)[C@@H]6C(=O)n5ccc(C)n5)nc(OC[C@@]56CCCN5C[C@H](F)C6)nc4c3F)c12", "test target": "KRas G12S (Homo sapiens, UniProt P01116, G12S)", "assigned class": "label 0"}
{"compound": "CC(=O)N(C)C(=O)[C@@H]1C[C@H]1CNc1nc(OC[C@@]23CCCN2C[C@H](F)C3)nc2c(F)c(-c3ccc(F)c4sc(N)c(C#N)c34)c(Cl)cc12", "test target": "KRas G12S (Homo sapiens, UniProt P01116, G12S)", "assigned class": "label 0"}
{"compound": "Cc1ccn(C(=O)C2C[C@@H]3CN(c4nc(OC[C@@]56CCCN5C[C@H](F)C6)nc5c(F)c(-c6ccc(F)c7sc(N)c(C#N)c67)c(Cl)cc45)C[C@@H]3C2)n1 (some centres unmarked)", "test target": "KRas G12S (Homo sapiens, UniProt P01116, G12S)", "assigned class": "label 1"}
{"compound": "CC(=O)N(C)C(=O)[C@@H]1C[C@@H]2CN(c3nc(OC[C@@]45CCCN4C[C@H](F)C5)nc4c(F)c(-c5ccc(F)c6sc(N)c(C#N)c56)c(Cl)cc34)C[C@@H]2C1", "test target": "KRas G12S (Homo sapiens, UniProt P01116, G12S)", "assigned class": "label 1"}
{"compound": "CCc1c(F)ccc2cc(O)cc(-c3ncc4c(N5C[C@@H](C)N(C(=O)n6ccc(C)n6)[C@H](C)C5)nc(OC[C@@]56CCCN5C[C@H](F)C6)nc4c3F)c12", "test target": "KRas G12S (Homo sapiens, UniProt P01116, G12S)", "assigned class": "label 0"}

----------
test target: KRas WT (Homo sapiens, UniProt P01116)
Construct: Biotinylated KRas (corresponding to amino acids 1-169, produced at Accelegan Inc.); biotin (biotinylated); purchased Accelegan Inc
assay notes: KRas binding assay, TR-FRET displacement of Cy5 labelled tracer
run parameters: 60-minute incubation at room temperature, 1% DMSO, pH 7.5
measurement kind: IC50 (nM)

{"molecule": "CCc1c(F)ccc2cc(O)cc(N3CCc4c(nc(OC[C@@]56CCCN5C[C@H](F)C6)nc4N4CCCCCC(C(=O)n5ccc(C)n5)C4)C3)c12 (some centres unmarked) [Example 192]", "test target": "KRas WT (Homo sapiens, UniProt P01116)", "value observed": 23}
{"molecule": "N#Cc1c(N)sc2c(F)ccc(-c3c(Cl)cc4c(N5CCN(S(=O)(=O)n6nccn6)CC5)nc(OC[C@@]56CCCN5C[C@H](F)C6)nc4c3F)c12 [Example 229]", "test target": "KRas WT (Homo sapiens, UniProt P01116)", "value observed": 161}
{"molecule": "CCc1c(F)ccc2cc(O)cc(-c3ncc4c(N5CC[C@@H](C(=O)n6ccc(C)n6)[C@@H](C)C5)nc(OC[C@@]56CCCN5C[C@H](F)C6)nc4c3F)c12 [Example 79]", "test target": "KRas WT (Homo sapiens, UniProt P01116)", "value observed": 246}
{"molecule": "Cc1ccn(C(=O)C2CCN(c3nc(OC[C@@]45CCCN4C[C@H](F)C5)nc4c(F)c(-c5ccc(F)c6sc(N)c(C#N)c56)c(Cl)cc34)CC2)n1 [Example 133]", "test target": "KRas WT (Homo sapiens, UniProt P01116)", "value observed": 17}
{"molecule": "CCc1c(F)ccc2cc(O)cc(-c3ncc4c(N5CCC(C(=O)n6cc(N(C)C)cn6)CC5)nc(OC[C@@]56CCCN5C[C@H](F)C6)nc4c3F)c12 [Example 64]", "test target": "KRas WT (Homo sapiens, UniProt P01116)", "value observed": 32}
{"molecule": "Cc1ccn(C(=O)C2CCCCN(c3nc(OC[C@@]45CCCN4C[C@H](F)C5)nc4c(F)c(-c5ccc(F)c6sc(N)c(C#N)c56)c(Cl)cc34)C2)n1 (some centres unmarked) [Example 136]", "test target": "KRas WT (Homo sapiens, UniProt P01116)", "value observed": 23}
{"molecule": "CCc1c(F)ccc2cc(O)cc(N3CCc4c(nc(OC[C@@]56CCCN5C[C@H](F)C6)nc4N4CCCC(C(=O)n5cccn5)CC4)C3)c12 (some centres unmarked) [Example 143]", "test target": "KRas WT (Homo sapiens, UniProt P01116)", "value observed": 166}
{"molecule": "Cc1ccccc1OC(=O)C1CCN(c2nc(OC[C@@]34CCCN3C[C@H](F)C4)nc3c(F)c(-c4ccc(F)c5sc(N)c(C#N)c45)c(Cl)cc23)CC1 [Example 243]", "test target": "KRas WT (Homo sapiens, UniProt P01116)", "value observed": 330}

----------
test target: KRas-mediated phosphorylation of ERK in MKN1 cells (Homo sapiens, UniProt P01116)
Construct: pERK HTRF read-out
Sequence (P01116 1-188 isoform P01116-2): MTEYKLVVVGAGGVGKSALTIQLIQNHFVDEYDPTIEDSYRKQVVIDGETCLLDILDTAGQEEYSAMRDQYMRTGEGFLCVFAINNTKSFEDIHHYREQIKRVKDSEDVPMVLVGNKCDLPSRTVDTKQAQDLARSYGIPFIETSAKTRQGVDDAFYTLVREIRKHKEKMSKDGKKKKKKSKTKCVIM
assay notes: Inhibition of KRas-mediated phosphorylation of ERK (HTRF), MKN1 cells
Type: cell-based
run parameters: MKN1 cells (KRas WT); HTRF pERK; 3 h incubation
Hi! Just check whether IC50 is below 1000 nM. Below gives 1.0, equal or above gives 0.0.

{"compound": "CCc1c(F)ccc2cc(O)cc(-c3ncc4c(N(C)CCNC(=O)n5nccn5)nc(OC[C@@]56CCCN5C[C@H](F)C6)nc4c3F)c12", "assigned class": 0.0}
{"compound": "CCc1c(F)ccc2cc(O)cc(-c3ncc4c(N(C)CCN(C)C(=O)n5nccn5)nc(OC[C@@]56CCCN5C[C@H](F)C6)nc4c3F)c12 (single isomer, unassigned)", "assigned class": 0.0}
{"compound": "CCc1c(F)ccc2cc(O)cc(-c3ncc4c(N5CCCC(C(=O)n6ccc(C)n6)CC5)nc(OC[C@@H]5CCCN5C)nc4c3F)c12 (some centres unmarked)", "assigned class": 0.0}
{"compound": "CN(C=O)C(=O)CCCN(C)c1nc(OC[C@@]23CCCN2C[C@H](F)C3)nc2c(F)c(-c3ccc(F)c4sc(N)c(C#N)c34)c(Cl)cc12", "assigned class": 1.0}
{"compound": "CCc1c(F)ccc2cc(O)cc(-c3ncc4c(N5C[C@H]6C[C@@H](C5)[C@H](C(=O)n5ccc(C)n5)C6)nc(OC[C@@]56CCCN5C[C@H](F)C6)nc4c3F)c12", "assigned class": 0.0}
{"compound": "Cc1ccn(C(=O)CCNc2nc(OC[C@@]34CCCN3C[C@H](F)C4)nc3c(F)c(-c4ccc(F)c5sc(N)c(C#N)c45)c(Cl)cc23)n1", "assigned class": 0.0}
{"compound": "CN(CCCC(=O)N(C)c1cccnc1)c1nc(OC[C@@]23CCCN2C[C@H](F)C3)nc2c(F)c(-c3ccc(F)c4sc(N)c(C#N)c34)c(Cl)cc12", "assigned class": 1.0}
{"compound": "CCc1c(F)ccc2cc(O)cc(-c3ncc4c(N5CCC(C(=O)N(C)C(=O)C(C)(C)C)CC5)nc(OC[C@@]56CCCN5C[C@H](F)C6)nc4c3F)c12", "assigned class": 1.0}
{"compound": "Cc1ccn(C(=O)C2CCCN(c3nc(OC[C@@]45CCCN4C[C@H](F)C5)nc4c(F)c(-c5c(I)ccc(N)c5C#N)c(Cl)cc34)CC2)n1 (some centres unmarked)", "assigned class": 0.0}
{"compound": "CCc1c(F)ccc2cc(O)cc(-c3ncc4c(N5C[C@H]6C[C@@H](C(=O)n7ccc(C)n7)[C@H]6C5)nc(OC[C@@]56CCCN5C[C@H](F)C6)nc4c3F)c12", "assigned class": 0.0}

----------
test target: KRas G12S (Homo sapiens, UniProt P01116, G12S)
Construct: Biotinylated KRas (corresponding to amino acids 1-169, produced at Accelegan Inc.); biotin (biotinylated); purchased Accelegan Inc
assay notes: KRas binding assay, TR-FRET displacement of Cy5 labelled tracer
run parameters: 60-minute incubation at room temperature, 1% DMSO, pH 7.5

{"compound": "COCCN(C(C)=O)C(=O)C1CCN(c2nc(OC[C@@]34CCCN3C[C@H](F)C4)nc3c(F)c(-c4ccc(F)c5sc(N)c(C#N)c45)c(Cl)cc23)CC1", "test target": "KRas G12S (Homo sapiens, UniProt P01116, G12S)", "IC50 (nM)": 17}
{"compound": "CCc1c(F)ccc2cc(O)cc(-c3ncc4c(N(C)C(C)CCC(=O)N(C)C(C)=O)nc(OC[C@@]56CCCN5C[C@H](F)C6)nc4c3F)c12 (stereo partly drawn)", "test target": "KRas G12S (Homo sapiens, UniProt P01116, G12S)", "IC50 (nM)": 44}
{"compound": "COc1ccn(C(=O)C2CCCN(c3nc(OC[C@@]45CCCN4C[C@H](F)C5)nc4c(F)c(-c5ccc(F)c6sc(N)c(C#N)c56)c(Cl)cc34)CC2)n1 (stereo partly drawn)", "test target": "KRas G12S (Homo sapiens, UniProt P01116, G12S)", "IC50 (nM)": 3}
